- Tested on: XIP peptide (Xip251-270) binding
- assay-info: small-molecule binders of XIP peptide, primary screen, biochemical, small-molecule microarray, fluorescence 635/667 nm, 0.1 µg/mL protein (AID 1182)
- recorded-conditions: fluorescent protein binding, 635 nm, higher = more signal, called active from +8 up or from −8 down
Activity calls are given as the source filed them.
assay-endpoint: composite z-score

Solved cases (5 shown):
COCCOC(=O)N1C(=O)[C@@]2(c3cc(C#CCNC(N)=O)ccc31)[C@H](C(=O)N1CCc3cc(OC)c(OC)cc3C1)[C@H]1C(=O)O[C@H](c3ccccc3)[C@H](c3ccccc3)N1[C@@H]2c1ccc(OCCO)cc1 = 0.034 (inactive)
COC(=O)c1ccc(C(O)C2C=CC3C(=O)N(c4ccccc4)C(=O)C3N2Nc2ccc(C#N)cc2)o1 (configuration not stated) = 0.324 (inactive)
COCCOC(=O)N1C(=O)[C@@]2(c3cc(C#CCC(C(=O)OC)C(=O)OC)ccc31)[C@H](c1ccccc1OCCO)N1[C@H](c3ccccc3)[C@H](c3ccccc3)OC(=O)[C@H]1[C@@H]2C(=O)N1CCc2cc(OC)c(OC)cc2C1 = 0.201 (inactive)
CC(C)CNC(=O)[C@@H]1c2ccccc2C(=O)N(Cc2cc(C(F)(F)F)cc(C(F)(F)F)c2)[C@H]1c1ccc(CO)cc1 = -0.133 (inactive)
NC(=O)NCC#Cc1ccc2c(c1)[C@]1(C(=O)N2)[C@H](C(=O)NC[C@H](O)c2ccccc2)[C@H]2C(=O)O[C@H](c3ccccc3)[C@H](c3ccccc3)N2[C@@H]1c1ccc(O)cc1 = 5.26 (inactive)

(Q) Notebook entry, XIP peptide (Xip251-270) binding assay: composite z-score of CC(C)N1CC=CC23O[C@@H]4C=CCOC(=O)[C@@H]4[C@H]2C(=O)N(CCO)[C@@H]3C1=O (some centres not stated) = ?
(A) -0.145 (inactive)

(Q) Another compound to check: "COCCOC(=O)N1C(=O)[C@@]2(c3cc(C#CCC(C(=O)OC)C(=O)OC)ccc31)[C@H](c1ccccc1OCCO)N1[C@H](c3ccccc3)[C@H](c3ccccc3)OC(=O)[C@H]1[C@@H]2C(N)=O"
(A) 0.547 (inactive)

(Q) Field entry: "C=C[C@H](COC(C)=O)N(Cc1ccc(OC(C)=O)c(OC)c1)S(=O)(=O)c1ccc(Br)cc1"
(A) 0.353 (inactive)

(Q) Another compound: CCOC(=O)C1=CCC(c2ccc(C#N)cc2)N(S(=O)(=O)c2ccc(C)cc2)C1 (configuration not stated)
(A) 1.79 (inactive)

(Q) Here is the next compound: "O=C1O[C@@H](c2ccccc2)[C@@H](c2ccccc2)N2[C@@H](c3ccccc3OCCO)[C@]3(C(=O)Nc4ccc(C#CC5(O)CCCCCC5)cc43)[C@@H](C(=O)Nc3nc4ccccc4s3)[C@H]12"
(A) 0.0985 (inactive)

(Q) Here is the next compound: Cc1cc(C)c(C(O)C2C=CC3C(=O)N(C)C(=O)C3N2Nc2ccccc2)c(C)c1 (configuration not stated)
(A) -0.0222 (inactive)

(Q) How about "COC(=O)C(CC#Cc1ccc2c(c1)[C@]1(C(=O)N2)[C@H](C(=O)NC[C@H](O)c2ccccc2)[C@H]2C(=O)O[C@H](c3ccccc3)[C@H](c3ccccc3)N2[C@@H]1c1ccc(OCCO)cc1)C(=O)OC" ?
(A) 0.518 (inactive)
